// reported Primary QIM CellNb per item
System: Raw264.7 cells
Test parameters: mouse, 5 days, 20 μM
Form: value (number only, do not type unit).

Query string: Record request: Primary QIM CellNb value, item `Cc1ccccc1NC(=O)c1c(NC(=O)c2ccccc2Cl)sc2c1CCC2`
Result string: 29.8

Query string: Tell me the measured Primary QIM CellNb of `O=C(N/N=C/c1ccc(Cl)cc1)c1ccncc1` , please.
Result string: 98.1

Query string: Bench note: what Primary QIM CellNb did `Cn1cc(/C=N/NC(=O)c2cccc(F)c2)c2ccccc21` show?
Result string: 19.9

Query string: # get_value(readout='Primary QIM CellNb', item= `O=C(Nc1ccc(Cl)c(Cl)c1)c1ccc([N+](=O)[O-])cc1Cl` )
Result string: 40.3

Now look at this entry.
Query string: For the molecule CCC(C)c1ccc(NC(=O)c2ccc(Cl)c([N+](=O)[O-])c2)cc1 (stereo not drawn) , what Primary QIM CellNb is on record?
Result string: 22.6

Hello, the source for this data is patent US8785452B2, in case you need it.
